Conditions: buffer; pH 7.4; 200.0 µM
Answer no if solubility kinetic is under 40 µg/mL, and yes if it is 40 µg/mL or more.

# count of solved cases: 3
1) Cc1ccc(N2C(=O)CSC2=S)cc1C ... no
2) Cc1cc(C(=O)CN2C(=O)NC(CCS(C)(=O)=O)C2=O)c(C)n1C1CC1 (configuration not stated) ... yes
3) O=C(Nc1ccc(OC(F)(F)F)cc1)Oc1ccccc1N1CCCCC1 ... no

Req: Hi team, for `Cc1ccc(NC(=O)COC(=O)C2CC2)cc1Cl` , is the recorded solubility kinetic at or above 40 µg/mL?
Resp: no

Req: I'd appreciate it if you could say whether `CNc1ccc(/C=C(\C#N)C(=O)Nc2ccccn2)cc1[N+](=O)[O-]` has solubility kinetic at least equal to 40 µg/mL.
Resp: no

Req: Answer whether solubility kinetic of `C=CCn1c(=O)c2ccccc2n2c(SCC(=O)N(C)C)nnc12` is greater than or equal to 40 µg/mL.
Resp: yes

Req: Record CCC1CCc2sc(C(=O)N3CCCN(C)CC3)cc2C1 (configuration not stated) ; criterion: solubility kinetic no lower than 40 µg/mL. Met?
Resp: no

Req: Given CC(C)N1CC(COc2ccc(Cl)cc2Cl)OC1=O (configuration not stated) , state whether its solubility kinetic is at least 40 µg/mL.
Resp: yes

Req: Quick check, solubility kinetic >= 40 µg/mL? CN(C)C(CNC(=O)c1ccc(C(F)(F)F)cc1)c1ccco1 (configuration not stated)
Resp: yes

Req: Tell me whether solubility kinetic is at least 40 µg/mL here: `Cc1ccc(NC(=O)Cn2cc(C(=O)C3CC3)c3ccccc32)c(C)c1`
Resp: no

###

Settings: buffer; pH 7.4; 200.0 µM
Decide using solubility kinetic: a value greater than or equal to 5 µg/mL is y, a smaller one is n.

1. Cc1ccc(C(=O)N2CCN(c3ncccn3)CC2)cc1 ... y
2. CCOc1ccc2nc(SCC(=O)NCc3ccc(OC)cc3)[nH]c2c1 ... y
3. COc1ccc(NC(=O)Nc2nc(C)cc(C)n2)c(OC)c1 ... y
4. Cc1ccc(C)c(S(=O)(=O)N2CCN(C(=O)c3cccnc3)CC2)c1 ... y
5. COCCNC(=O)/C(C#N)=C/c1ccc(OCc2ccc(F)cc2)cc1 ... n
6. FC(F)(F)c1cccc(-c2nc(COc3ccc(Cl)cc3Cl)no2)c1 ... n

Proceed to the following item.
Req: Test whether the compound `Cc1cc2ccccn2c1C(=O)c1ccc([N+](=O)[O-])o1` records solubility kinetic of 5 µg/mL or higher.
Resp: n

###

Conditions: buffer; pH 7.4; 200.0 µM
Recorded metric: solubility kinetic (µg/mL)
Give bare numbers, in µg/mL.

For each of the molecules below, note its solubility kinetic.
1. Cc1ccsc1C1CC(=O)Nc2ccccc2S1 (stereo unspecified)
2. C=CCSc1nsc(NC(=O)Nc2ccc(F)cc2)n1
3. COc1ccccc1NC(=O)COc1ccc(C(=O)NCC2CCCO2)cc1OC (stereo unspecified)

Resp:
1: 35.6; 2: 1.2; 3: 51.5

###

Conditions: buffer; pH 7.4; 200.0 µM
Record true whenever solubility kinetic is at 30 µg/mL or higher; record false when lower.

1) O=C(NC1CCS(=O)(=O)C1)c1cccs1 (stereo not given) ... true
2) CC(=O)c1ccc(N2C(=O)C3C4C=CC(CC4)C3C2=O)cc1 (stereo not given) ... true
3) O=[N+]([O-])c1ccc(S(=O)(=O)Nc2nc(-c3ccccc3)cs2)cc1 ... true
4) O=C(CCN1C(=O)c2ccccc2C1=O)NCCCn1ccnc1 ... true
5) Cc1cc(=O)[nH]c(SCC(=O)N2CCCC2)n1 ... true
6) CCC(CO)NCC#Cc1ccccc1.Cl (stereo not given) ... true

Req: Would you say `Oc1ccc(Cl)cc1CNc1nccs1` shows solubility kinetic at minimum 30 µg/mL?
Resp: false

###

Conditions: buffer; pH 7.4; 200.0 µM
Recorded metric: solubility kinetic

Illustrative cases are given below, each with its answer.
1. Cc1cc(Br)c2c(c1)C1(OCCO1)C(=O)N2 ... > 42.6 µg/mL
2. O=C1C(=O)N(C/C=C/c2ccccc2)c2ccccc21 ... 2.3 µg/mL
3. CCC(C)n1c(O)c(C=NC(C)c2ccccc2)c(=O)[nH]c1=S (configuration not stated) ... 4.3 µg/mL
4. Cc1csc(SCC(=O)N(C)C2CCS(=O)(=O)C2)n1 (configuration not stated) ... > 48.1 µg/mL
5. O=c1c2[nH]c3ccccc3c2nc2n1CCS2 ... 4.5 µg/mL
6. COc1ccc(-c2noc(CN(C)C(=O)c3ccco3)n2)cc1 ... 42.7 µg/mL
7. OCCNc1nc(N2CCOCC2)nc(N2CCOCC2)n1 ... 44.7 µg/mL
8. Cc1ccc(S(=O)(=O)N2CCN(c3ccccc3)CC2)c(C)c1 ... 3 µg/mL
9. O=C(CN1C(=O)NC2(CCCCC2)C1=O)Nc1ccc(Cl)cc1 ... 11.3 µg/mL
10. Cc1cccc(C(=O)NC(=O)Nc2c(C)cc(C)nc2C)c1 ... > 44.6 µg/mL

Okay, here is my list. What is solubility kinetic for each of these?
1. NS(=O)(=O)c1ccc(NC(=O)CCC(=O)c2cccs2)cc1
2. COc1cc(C(C)=O)ccc1OCC(=O)NCC(c1ccc(F)cc1)N1CCOCC1 (configuration not stated)

Resp:
1: 14.7 µg/mL; 2: > 64.6 µg/mL

###

Details: buffer; pH 7.4; 200.0 µM
Recorded metric: solubility kinetic (µg/mL)
Answers are plain numbers, in µg/mL.

1. COc1ccccc1NS(=O)(=O)c1ccc2oc(SC)nc2c1 ... 1.9
2. Cc1ccccc1NC(=O)CN1CCc2ccccc2C1 ... 24.8
3. COc1cc(OC)c(OC)cc1CN1CCSCC1 ... 32.3
4. COC(=O)CS(=O)(=O)c1cc([N+](=O)[O-])ccc1NC(=O)OC ... 38.7
5. O=C(NC(=S)Nc1cccc(-c2ccc(CO)o2)c1)c1cccs1 ... 4.7
6. CN(C)Cc1ccc(CNC(=O)COc2ccc3ccccc3c2)cc1 ... 44.7

Look at each compound and report its solubility kinetic.
1. CSc1ccc(C(=S)N2CCCC2)cc1
2. O=C(NCc1ccco1)NC(=O)c1csc([N+](=O)[O-])c1

Resp:
29.6
0.6

###

Details: buffer; pH 7.4; 200.0 µM
Everything with solubility kinetic lower than 9 µg/mL is rule not met; everything else, including exactly 9 µg/mL, is rule met.

Take a look at these entries with their results.
1) O=C(c1ccc([N+](=O)[O-])cc1[N+](=O)[O-])N1CCCC1 ... rule met
2) CCC(C)(NC(=O)c1ccc2c(c1)OCO2)C(=O)NC1CCCCC1 (configuration not stated) ... rule met
3) Cn1cnnc1SCC(=O)NNC(=O)c1ccc([N+](=O)[O-])cc1 ... rule met

Req: # check: solubility kinetic of `O=S(=O)(c1ccc(F)cc1)N1CC=C(c2ccccc2)CC1` is greater than or equal to 9 µg/mL
Resp: rule not met

Req: Assess whether reported solubility kinetic for `CCCN1CCN(CCNC(=O)Nc2ccccc2Cl)CC1` sits at 9 µg/mL or higher.
Resp: rule met

Req: Identify whether the reported solubility kinetic of the following compound is 9 µg/mL or greater: `CC(C)n1c(SCC(=O)NC2CC2)nnc1-c1ccco1`
Resp: rule met

###

Settings: buffer; pH 7.4; 200.0 µM
Recorded metric: solubility kinetic (µg/mL)
Give bare numbers, in µg/mL.

1) CC(=O)c1cc(F)ccc1OCC(=O)N1CCCc2ccccc21 ... 44.1
2) CCOc1cc(NC(=O)CCl)c(OCC)cc1NC(=O)CCl ... 6.8
3) O=c1c2[nH]c3cccc(Cl)c3c2ncn1Cc1ccco1 ... 0.5
4) NC(=O)c1ccccc1NC(=O)Nc1ccc(F)c(Cl)c1 ... 2.1
5) CCN(CC)c1ccc(NC(=S)Nc2ccc(F)cc2)cc1 ... 9

# return solubility kinetic for each item in the list
1. O=C(O)c1cccc(NC2=Nc3cccc4cccc2c34)c1
2. O=C(CCCC(=O)c1ccccc1)NCCc1ccccc1F
3. COc1ccc(CNC(=O)N2CCN(c3ccccc3)CC2)cc1
4. Cc1nc2ccccn2c1C(=O)CSc1cccc(Cl)c1

Resp:
1. 36.7
2. 44.1
3. 3.5
4. 3.9

Please state solubility kinetic for every molecule in the list that follows.
1. Cc1ccccc1CSc1nc2ccccc2c(=O)n1C
2. COc1ccccc1NC(=O)CN1CCN(c2ccccc2)CC1
3. CC(C)Nc1nc(Cl)nc(NC2CCCCC2)n1
4. Clc1ccc2c(c1)CCc1cccnc1C2=C1CCNCC1
5. CCOC(=O)c1c(N=CN(C)C)c2cc([N+](=O)[O-])cnc2n1C
6. O/N=C/c1ccnc(SCc2ccc(Cl)cc2)n1

Resp:
1.5
35.3
2.7
21.6
35
1.2

Please give solubility kinetic, item by item, for the list that follows.
1. CC1CCCC(NC(=O)COC(=O)CCc2ccccc2)C1C (centres undefined)
2. CC(C)CC(=O)NC1(C(F)(F)F)NC(=O)N(c2ccccc2)C1=O (centres undefined)
3. CC(C)(C)NC(=O)NC(=O)CN1CCCCCCC1
4. CCN1CCN(CCC(=O)Nc2cccc(C)c2)CC1.Cl
5. N#Cc1ncccc1CCc1cccc(Cl)c1

Resp:
1. 12.2
2. 45.8
3. 21.2
4. 46.4
5. 22.4

Dear colleague, could you please provide solubility kinetic for the molecules listed below?
1. CCC1CCC2(CC1)SCC(=O)N2c1ccccc1 (centres undefined)
2. CC(C)CC(=O)c1c[nH]c(C(=O)NCc2ccccc2)c1

Resp:
1: 5.7; 2: 1.6
